Listed next: entries and their corresponding Kd.
target: T1, rhEphA5 antigen (Homo sapiens, UniProt P54756); experiment: KD (M)
T1 construct: purchased R and D systems 3036-A5

>  <MOLECULE>
VH3/VK2: humanized anti-EphA5 antibody, VH SEQ ID NO:4, VL SEQ ID NO:10 (antibody, V domains shown) VH: EVQLVESGGGLVQPGGSLKLSCAASGFTFSTFGIHWVRQAPGKGLEWVAYISGASTTIYYADTVKGRFTISRDNSKNTLYLQMNSLRSEDTAMYYCARYGTSFPYGLDYWGQGTLVTVSS VL: DIVMTQSPDSLAVSLGERATINCKASQSVDYDGDSYMNWYQQKPGKAPKLLIYGASNLESGIPDRFSGSGSGTDFTLTISRLEPEDAASYYCQQSNEDPFTFGQGTKLEIK

>  <Kd (nM)>
0.968

$$$$
>  <MOLECULE>
VH3/VK5: humanized anti-EphA5 antibody, VH SEQ ID NO:4, VL SEQ ID NO:13 (antibody, V domains shown) VH: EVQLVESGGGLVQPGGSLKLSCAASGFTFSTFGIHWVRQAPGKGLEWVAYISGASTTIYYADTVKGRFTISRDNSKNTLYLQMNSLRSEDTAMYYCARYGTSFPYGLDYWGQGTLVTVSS VL: DIVMTQSPDSLAVSLGERATINCKSSQSVDYDGDSYMNWYQQKPGKAPKLLIYGASNLESGIPDRFSGSGSGTDFTLTISRLEPEDAAVYYCQQSNEDPFTFGQGTKLEIK

>  <Kd (nM)>
1.1

$$$$
>  <MOLECULE>
VH3/VK1: humanized anti-EphA5 antibody, VH SEQ ID NO:4, VL SEQ ID NO:9 (antibody, V domains shown) VH: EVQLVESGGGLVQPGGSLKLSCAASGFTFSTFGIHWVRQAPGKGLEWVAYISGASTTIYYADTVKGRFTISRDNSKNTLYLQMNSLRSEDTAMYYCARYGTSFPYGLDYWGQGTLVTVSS VL: DIVMTQSPGSLAVSLGERATINCKASQSVDYDGDSYMNWYQQKPGKAPKLLIYGASNLESGIPDRFSGSGSGTDFTLTISRLEEEDAASYYCQQSNEDPFTFGQGTKLEIK

>  <Kd (nM)>
0.884

$$$$
>  <MOLECULE>
VH1/VK2: humanized anti-EphA5 antibody, VH SEQ ID NO:2, VL SEQ ID NO:10 (antibody, V domains shown) VH: EVTLVESGGGLVQPGGSRKLSCAASGFTFSTFGIHWVRQAPGKGLEWVAYISGASTTIYYADTVKGRFTISRDNSKNTLYLQMNSLRSEDTAMYYCARYGTSFPYGLDYWGQGTSVTVSS VL: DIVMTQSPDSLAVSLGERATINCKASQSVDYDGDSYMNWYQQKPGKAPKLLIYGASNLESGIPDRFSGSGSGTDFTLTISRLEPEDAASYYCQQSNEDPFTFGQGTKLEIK

>  <Kd (nM)>
0.968

$$$$
>  <MOLECULE>
VH2/VK5: humanized anti-EphA5 antibody, VH SEQ ID NO:3, VL SEQ ID NO:13 (antibody, V domains shown) VH: EVTLVESGGGLVQPGGSLKLSCAASGFTFSTFGIHWVRQAPGKGLEWVAYISGASTTIYYADTVKGRFTISRDNSKNTLYLQMNSLRSEDTAMYYCARYGTSFPYGLDYWGQGTLVTVSS VL: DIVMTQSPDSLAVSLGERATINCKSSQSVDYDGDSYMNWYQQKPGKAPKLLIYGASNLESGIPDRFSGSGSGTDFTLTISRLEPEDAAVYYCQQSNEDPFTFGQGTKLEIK

>  <Kd (nM)>
1.05

$$$$
>  <MOLECULE>
VH3/VK4: humanized anti-EphA5 antibody, VH SEQ ID NO:4, VL SEQ ID NO:12; lead variant (antibody, V domains shown) VH: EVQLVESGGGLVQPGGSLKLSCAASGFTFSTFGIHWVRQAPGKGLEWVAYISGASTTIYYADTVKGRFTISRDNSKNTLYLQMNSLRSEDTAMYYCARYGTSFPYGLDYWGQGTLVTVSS VL: DIVMTQSPDSLAVSLGERATINCKSSQSVDYDGDSYMNWYQQKPGKAPKLLIYGASNLESGIPDRFSGSGSGTDFTLTISRLEPEDAASYYCQQSNEDPFTFGQGTKLEIK

>  <Kd (nM)>
0.956

$$$$
>  <MOLECULE>
VH3/VK3: humanized anti-EphA5 antibody, VH SEQ ID NO:4, VL SEQ ID NO:11 (antibody, V domains shown) VH: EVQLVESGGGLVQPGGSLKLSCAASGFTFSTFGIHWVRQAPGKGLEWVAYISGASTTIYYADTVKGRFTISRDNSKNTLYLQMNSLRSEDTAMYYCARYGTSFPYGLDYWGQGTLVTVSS VL: DIVMTQSPDSLAVSLGERATINCKASQSVDYDGDSYMNWYQQKPGKAPKLLIYGASNLESGIPDRFSGSGSGTDFTLTISRLEPEDAAVYYCQQSNEDPFTFGQGTKLEIK

>  <Kd (nM)>
1.01

$$$$
>  <MOLECULE>
VH2/VK4: humanized anti-EphA5 antibody, VH SEQ ID NO:3, VL SEQ ID NO:12 (antibody, V domains shown) VH: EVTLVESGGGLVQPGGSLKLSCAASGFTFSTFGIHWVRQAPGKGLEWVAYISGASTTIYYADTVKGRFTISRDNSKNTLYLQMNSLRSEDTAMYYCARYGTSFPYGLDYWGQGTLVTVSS VL: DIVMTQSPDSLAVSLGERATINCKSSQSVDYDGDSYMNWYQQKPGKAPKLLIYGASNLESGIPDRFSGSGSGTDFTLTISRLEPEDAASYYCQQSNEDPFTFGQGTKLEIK

>  <Kd (nM)>
0.917

$$$$
